- Tested on: 10T1/2 cells
- method.description: FACS cellular uptake of BODIPY conjugates in 10T1/2 cells
- Type: cell-based, mouse
- measurement.conditions: 0.5 μM of each compound for 1 hr; average of 10,000 cells
Items are presented alongside their recorded Mean Fluorescence Intensity of treated cells according to FACS, 10T1/2.

Worked cases, Mean Fluorescence Intensity of treated cells according to FACS, 10T1/2 given:
// query Mean Fluorescence Intensity of treated cells according to FACS, 10T1/2 value for entry BODIPY-Cys(Arg)9 (CRRRRRRRRR; N-acetyl, C-amide, BODIPY label on Cys) [BODIPY-Cys (Arg)9 (5), common poly-Arg transduction peptide, reference compound]
280

Now give it for neo-BODIPY [Neo-BODIPY (3)] too.
60

Now give it for guanidino-Neo-BODIPY [Guanidino-Neo-BODIPY (4)] too.
430

Now give it for guanidino-tobra-BODIPY [Guanidino-Tobra-BODIPY (2)] too.
240

Consider the additional substance presented here.
// query Mean Fluorescence Intensity of treated cells according to FACS, 10T1/2 value for entry tobra-BODIPY [Tobra-BODIPY (1)]
60

These measurements were taken from patent US9889182B2.
